target: Oxysterols receptor LXR-alpha (Homo sapiens); assay: ATG_LXRa_TRANS: Attagene TRANS-FACTORIAL HepG2 Assay for human Liver X Receptor alpha (LXRa) (AID 2282980); conditions: HepG2 Attagene TRANS reporter, LXRa transactivation
Results filed as inconclusive are left out. Activity calls are given as the source filed them. How the source made its calls: active means hit-call score of the fitted dose curve at least 0.9, where 1 is the maximum; inconclusive means response in the unintended direction; inactive means score below 0.9.
Can you answer with just one of these options? active, inactive

Field: example entries. Status: answers known.
1) CCC(=C(c1ccc(O)cc1)c1ccc(OCCN(C)C)cc1)c1ccccc1 = inactive
2) COCC(C)O (stereo unspecified) = inactive
3) CCCCCCCCCCCCc1ccccc1S(=O)(=O)O = inactive
4) O=C(/C=C/c1ccc(O)cc1)CC(=O)/C=C/c1ccc(O)cc1 = inactive
5) CCCOC(=O)c1ccc(O)cc1 = inactive
6) C[C@@H]1C[C@H]2[C@@H]3CCC4=CC(=O)C=C[C@]4(C)[C@@]3(F)[C@@H](O)C[C@]2(C)[C@@]1(O)C(=O)COP(=O)(O)O = inactive
7) CC(C)(C)c1cc(C(C)(C)C)c(O)c(C(C)(C)C)c1 = inactive
8) CC(C)(C)c1cccc(C(C)(C)C)c1O = active
9) CCCCC(CC)COC(=O)CCCCC(=O)OCC(CC)CCCC (stereo unspecified) = inactive
10) Oc1cc2ccccc2c2ccccc12 = inactive

What classification did `O=C(O)c1ccccc1C(c1ccc(O)cc1)c1ccc(O)cc1` end up with in this test?
inactive

Quick one: CCC(C)(C)C1CCC(O)CC1 (stereo unspecified)
inactive

Quick one: `OCCC(F)(F)C(F)(F)C(F)(F)C(F)(F)C(F)(F)C(F)(F)F`
inactive

Quick one: `Cc1ccc(S(=O)(=O)O)c(C)c1`
inactive

Quick one: `CC(C)(C)c1ccc(O)c(C(C)(C)C)c1`
active

Quick one: `CC(=O)NC1(c2cccc(F)c2)CCN(CC[C@@]2(c3ccc(Cl)c(Cl)c3)CN(c3ccccc3)C(=O)CO2)CC1`
inactive

Quick one: `OCCC(F)(F)C(F)(F)C(F)(F)C(F)(F)C(F)(F)C(F)(F)C(F)(F)C(F)(F)F`
inactive

Quick one: `FC(F)(I)C(F)(F)C(F)(F)C(F)(F)C(F)(F)C(F)(F)I`
inactive

Quick one: `CC(=O)CC(C)(C)O`
inactive
